- condition context: in DMSO, 293.15 K
measurement label: solubility (mole fraction)
No unit in the answer, please; the number alone is enough.

Query: Recorded solubility (mole fraction) of CCC(C)n1ncn(-c2ccc(N3CCN(c4ccc(OC[C@H]5CO[C@](Cn6cncn6)(c6ccc(Cl)cc6Cl)O5)cc4)CC3)cc2)c1=O (mixture of isomers) , please.
Result: 0.000309

###

- condition context: in water, 323.15 K
measurement label: solubility (mole fraction)
Would you mind answering with just the numeric figure?

Query: Tell me the measured solubility (mole fraction) of CCC(C)n1ncn(-c2ccc(N3CCN(c4ccc(OC[C@H]5CO[C@](Cn6cncn6)(c6ccc(Cl)cc6Cl)O5)cc4)CC3)cc2)c1=O (mixture of isomers) , please.
Result: 1.21e-07

###

- condition context: in ethanol, 313.15 K
measurement label: solubility (mole fraction)

Query: I'd like to know its solubility (mole fraction). The molecule in question is CCC(C)n1ncn(-c2ccc(N3CCN(c4ccc(OC[C@H]5CO[C@](Cn6cncn6)(c6ccc(Cl)cc6Cl)O5)cc4)CC3)cc2)c1=O (mixture of isomers)
Result: 3.73e-05

###

- condition context: in DMSO, 303.15 K
measurement label: solubility (mole fraction)
Could you keep your reply to the number by itself?

Query: Returns the measured solubility (mole fraction) for the input compound. Input: CCC(C)n1ncn(-c2ccc(N3CCN(c4ccc(OC[C@H]5CO[C@](Cn6cncn6)(c6ccc(Cl)cc6Cl)O5)cc4)CC3)cc2)c1=O (mixture of isomers)
Result: 0.000469

###

- condition context: in water, 283.15 K
measurement label: solubility (mole fraction)
Give a plain numeric answer without units written out.

Query: What value of solubility (mole fraction) has been reported for the following compound? CCC(C)n1ncn(-c2ccc(N3CCN(c4ccc(OC[C@H]5CO[C@](Cn6cncn6)(c6ccc(Cl)cc6Cl)O5)cc4)CC3)cc2)c1=O (mixture of isomers)
Result: 4.17e-09

###

- condition context: in isopropanol, 293.15 K
measurement label: solubility (mole fraction)
Reply with the value as a number alone.

Query: Could you tell me which solubility (mole fraction) is on file for CCC(C)n1ncn(-c2ccc(N3CCN(c4ccc(OC[C@H]5CO[C@](Cn6cncn6)(c6ccc(Cl)cc6Cl)O5)cc4)CC3)cc2)c1=O (mixture of isomers) ?
Result: 1.3e-05
